Examples of molecules with documented MIC (μg/mL) P. aeruginosa 116 follow.
- Tested on: P. aeruginosa 116
- Type: cell-based
Residues, ends and D or L forms follow the SMILES beside them.
// units = µg/mL; emit number, no label

CC[C@H](C)[C@H](N)C(=O)N[C@H](C(=O)N[C@H](C(=O)N[C@@H](CCCNC(=N)N)C(=O)N[C@@H](Cc1ccccc1)C(=O)N[C@@H](CC(C)C)C(=O)N[C@@H](CCCCN)C(=O)N1CCC[C@H]1C(=O)N[C@@H](CCCCN)C(=O)N[C@@H](CC(C)C)C(=O)N[C@@H](CC(C)C)C(=O)N[C@@H](CCCCN)C(=O)N[C@@H](C)C(=O)N[C@@H](CC(C)C)C(=O)N[C@@H](CCCCN)C(N)=O)[C@@H](C)CC)C(C)C [QLX-3DV-19] (H-IVIRFLKPKLLKALK-NH2) ... 32

Would you kindly look at the next entry?
Which value of MIC (μg/mL) P. aeruginosa 116 has been reported for CC[C@H](C)[C@H](NC(=O)[C@H](CCCCN)NC(=O)[C@H](Cc1c[nH]c2ccccc12)NC(=O)[C@@H](N)CCCCN)C(=O)N[C@@H](CCCCN)C(=O)N[C@@H](Cc1c[nH]c2ccccc12)C(=O)N[C@@H](CCCNC(=N)N)C(=O)N[C@H](C(=O)N[C@@H](CCCNC(=N)N)C(=O)N[C@@H](Cc1c[nH]c2ccccc12)C(=O)N[C@@H](Cc1ccccc1)C(=O)N[C@@H](CCCCN)C(=O)N[C@@H](CC(C)C)C(=O)N[C@@H](CC(C)C)C(N)=O)C(C)C [QLX-3DV-9] (H-KWKIKWRVRWFKLL-NH2) in the records? 4

----------
Examples of compounds with documented MIC (μg/mL) P. aeruginosa 119 follow.
- Test system: P. aeruginosa 119
- Type: cell-based
Residues, ends and D or L forms follow the SMILES beside them.
// units = µg/mL; emit number, no label

Consider the following illustrative entries.
CC[C@H](C)[C@H](NC(=O)[C@H](CCCCN)NC(=O)[C@H](Cc1c[nH]c2ccccc12)NC(=O)[C@@H](N)CCCCN)C(=O)N[C@@H](CCCCN)C(=O)N[C@@H](CCC(N)=O)C(=O)N[C@@H](Cc1c[nH]c2ccccc12)C(=O)N[C@H](C(=O)N[C@@H](CCCNC(=N)N)C(=O)N[C@@H](Cc1c[nH]c2ccccc12)C(=O)N[C@@H](Cc1ccccc1)C(=O)N[C@@H](CCCNC(=N)N)C(=O)N[C@@H](CCCCN)C(=O)N[C@@H](CC(C)C)C(N)=O)C(C)C [QLX-3DV-6] (H-KWKIKQWVRWFRKL-NH2) ... 128
CC[C@H](C)[C@H](NC(=O)[C@H](CCCCN)NC(=O)[C@H](Cc1c[nH]c2ccccc12)NC(=O)[C@@H](N)CCCCN)C(=O)N[C@@H](CCCCN)C(=O)N[C@@H](Cc1c[nH]c2ccccc12)C(=O)N[C@@H](CCCNC(=N)N)C(=O)N[C@H](C(=O)N[C@@H](CCCNC(=N)N)C(=O)N[C@@H](Cc1c[nH]c2ccccc12)C(=O)N[C@@H](Cc1ccccc1)C(=O)N[C@@H](CCCCN)C(=O)N[C@@H](CC(C)C)C(=O)N[C@@H](CC(C)C)C(N)=O)C(C)C [QLX-3DV-9] (H-KWKIKWRVRWFKLL-NH2) ... 16
CC(C)[C@H](N)C(=O)N[C@@H](CCCCN)C(=O)N[C@H](C(=O)N[C@@H](Cc1ccccc1)C(=O)N[C@@H](CCCNC(=N)N)C(=O)N[C@@H](Cc1ccccc1)C(=O)N[C@@H](Cc1ccc(O)cc1)C(=O)N[C@@H](Cc1c[nH]c2ccccc12)C(=O)N[C@@H](CCCCN)C(=O)N[C@@H](CCCNC(=N)N)C(=O)N[C@@H](CCCCN)C(=O)N[C@@H](CCC(N)=O)C(=O)N[C@@H](CCCNC(=N)N)C(=O)N[C@@H](Cc1ccccc1)C(N)=O)C(C)C [QLX-3DV-12] (H-VKVFRFYWKRKQRF-NH2) ... 32
CC[C@H](C)[C@H](N)C(=O)N[C@H](C(=O)N[C@H](C(=O)N[C@@H](CCCNC(=N)N)C(=O)N[C@@H](Cc1ccccc1)C(=O)N[C@@H](CC(C)C)C(=O)N[C@@H](CCCCN)C(=O)N1CCC[C@H]1C(=O)N[C@@H](CCCCN)C(=O)N[C@@H](CC(C)C)C(=O)N[C@@H](CC(C)C)C(=O)N[C@@H](CCCCN)C(=O)N[C@@H](C)C(=O)N[C@@H](CC(C)C)C(=O)N[C@@H](CCCCN)C(N)=O)[C@@H](C)CC)C(C)C [QLX-3DV-19] (H-IVIRFLKPKLLKALK-NH2) ... 128
CC[C@H](C)[C@H](NC(=O)[C@H](CCCCN)NC(=O)[C@H](Cc1c[nH]c2ccccc12)NC(=O)[C@@H](N)CCCCN)C(=O)N[C@@H](CCCCN)C(=O)N[C@@H](Cc1c[nH]c2ccccc12)C(=O)N1CCC[C@H]1C(=O)N[C@@H](CO)C(=O)N[C@@H](CCCNC(=N)N)C(=O)N[C@@H](Cc1c[nH]c2ccccc12)C(=O)N[C@@H](Cc1ccccc1)C(=O)N[C@H](C(=O)N[C@@H](CCCCN)C(=O)N[C@@H](CC(C)C)C(N)=O)[C@@H](C)O [QLX-3DV-4] (H-KWKIKWPSRWFTKL-NH2) ... 32

Item: CC[C@H](C)[C@H](NC(=O)[C@H](CCCCN)NC(=O)[C@H](Cc1c[nH]c2ccccc12)NC(=O)[C@@H](N)CCCCN)C(=O)N[C@@H](CCCCN)C(=O)N[C@@H](Cc1c[nH]c2ccccc12)C(=O)N1CCC[C@H]1C(=O)N[C@@H](CO)C(=O)N[C@@H](CC(N)=O)C(=O)N[C@@H](Cc1c[nH]c2ccccc12)C(=O)N[C@@H](Cc1ccccc1)C(=O)N[C@H](C(=O)N[C@@H](CCCCN)C(=O)N[C@@H](CC(C)C)C(N)=O)[C@@H](C)O [QLX-3DV-3] (H-KWKIKWPSNWFTKL-NH2) Test system: P. aeruginosa 119 Read-out: MIC (μg/mL) P. aeruginosa 119 Value: ? 32

Item: CC[C@H](C)[C@H](NC(=O)[C@H](CCCCN)NC(=O)[C@H](CCCNC(=N)N)NC(=O)[C@@H](N)CCCCN)C(=O)N[C@@H](CCCCN)C(=O)N[C@@H](Cc1c[nH]c2ccccc12)C(=O)N[C@@H](CCCCN)C(=O)N[C@H](C(=O)N[C@@H](CCCNC(=N)N)C(=O)N[C@@H](Cc1c[nH]c2ccccc12)C(=O)N[C@@H](Cc1ccccc1)C(=O)N[C@H](C(=O)N[C@@H](Cc1ccc(O)cc1)C(=O)N[C@@H](CC(C)C)C(N)=O)[C@@H](C)O)C(C)C [QLX-3DV-7] (H-KRKIKWKVRWFTYL-NH2) Test system: P. aeruginosa 119 Read-out: MIC (μg/mL) P. aeruginosa 119 Value: ? 64

Item: CC[C@H](C)[C@H](NC(=O)[C@H](CC(C)C)NC(=O)[C@@H](NC(=O)[C@H](C)NC(=O)[C@@H](N)CC(C)C)C(C)C)C(=O)N[C@@H](Cc1ccccc1)C(=O)N[C@H](C(=O)N[C@@H](CCCNC(=N)N)C(=O)N[C@@H](CCCNC(=N)N)C(=O)N[C@@H](CCCCN)C(=O)N[C@@H](CCC(N)=O)C(=O)N[C@@H](CC(C)C)C(N)=O)C(C)C [QLX-3DV-17] (H-LAVLIFVRRKQL-NH2) Test system: P. aeruginosa 119 Read-out: MIC (μg/mL) P. aeruginosa 119 Value: ? 64
